Tested on: MALME-3M melanoma
Assay: NCI-60 one-dose screen, 48 h (100 = growth as untreated, 0 = no growth, -100 = all killed)
Settings: 10 µM unless noted
This is part of a sample that, as a whole, favours compounds with a hit. Of some 83,000 tested, about 20% had one in any assay.
Listed here are molecules together with their documented growth.
Please give a number only; it is taken to be in %.

Field: example entries. Status: answers known.
{"columns": ["MOLECULE", "QUANTITY_UNIT", "RESULT_NUMBER"],
 "data": [
  ["COc1ccc(C(=O)/C=C/c2ccccc2Cl)cc1S(N)(=O)=O", "%", 93.9],
  ["O=C(N1c2ccccc2Sc2ccccc21)n1ccc2cccnc21", "%", 75.5],
  ["CCCCSc1nc(Nc2ccc(C(C)=O)cc2)c(C#N)c(-c2ccc(OC)cc2)n1", "%", 77.2]
]}

Query block: Return reported growth; argument: Cc1ccc(NC(=O)CN2CCN(c3ncnc4c3cnn4-c3ccccc3)CC2)cc1
Result block: 90.8

Query block: Given COc1ccc2[nH]cc(-c3nnc(N)nc3-c3cn(C)c4ncc(Br)cc34)c2c1 , state its recorded growth.
Result block: 121

Query block: Consider the molecule COc1c(F)ccc(C(=O)Nc2ccc3nc(NC(=O)C4CCCN(S(=O)(=O)c5ccc(Br)c(F)c5)C4)sc3c2)c1F (centres undefined) and give its measured growth.
Result block: 95.6

###

Let's look at some molecules and their measured growth.
System: SK-MEL-2 melanoma
Assay: NCI-60 one-dose screen, 48 h (100 = growth as untreated, 0 = no growth, -100 = all killed)
Details: 10 µM unless noted
This is part of a sample that, as a whole, favours compounds with a hit. Of some 83,000 tested, about 20% had one in any assay.
Entry rule: numbers only, all in %.

Past entries and their recorded results:
{"columns": ["MOLECULE", "QUANTITY_UNIT", "growth"],
 "data": [
  ["C=Cn1cc(C(=O)O)c(=O)c2cc(F)c(N3CCN(c4nccc(-c5nccs5)n4)CC3)cc21", "%", -83.2],
  ["COc1c(F)ccc(C(=O)Nc2ccc3nc(NC(=O)C4CCCN(S(=O)(=O)c5ccc(Br)s5)C4)sc3c2)c1F (stereo unspecified)", "%", 81.8],
  ["COCOc1cc2c(=O)c(C)c(C(=O)N[C@@H](Cc3ccccc3)C(O)C(=O)NCc3ccccc3)oc2cc1OC (stereo partly specified)", "%", -2.79]
]}

Query block: Find the recorded growth belonging to CCN(CC)c1ccc(/C=N/Nc2nc(-c3ccc(C)cc3)cs2)c(O)c1 and report it.
Result block: 79.7

Query block: I have this molecule here, COc1ccc2[nH]cc(-c3cc(N)n4nc(-c5cn(C)c6ccccc56)cc4n3)c2c1 , and I need its recorded growth.
Result block: -96

Query block: Quick one: growth for Brc1ccc(-c2n(Cc3ccc4ccccc4c3)c(-c3ccccc3)c(-c3ccccc3)[n+]2Cc2ccc3ccccc3c2)cc1 ?
Result block: -90.1

Query block: State the recorded growth for this entry: COc1ccc(CCC2c3c(cc4c(c3OC)OCO4)CCN2C)cc1 (stereo unspecified)
Result block: -62.7

Query block: Could you share which growth value was measured for CC12CC[C@@H]3[C@]4(C)COC(c5cn[nH]c5-c5ccc(Cl)cc5)O[C@@H]4CC[C@@]3(C)[C@@H]1CC(C1=CCOC1=O)O2 (stereo partly specified) ?
Result block: 29.7

Query block: Could you share which growth value was measured for Cc1ccc(C(=O)NN2C(=O)/C(=C/C=C/c3ccc([N+](=O)[O-])o3)SC2=S)cc1 ?
Result block: -89.8
